List of Plant response rating, Pigweed values.
Tested on: pigweed
Assay: Test A postemergence
Type: in vivo, Amaranthus retroflexus
Details: 125 g ai/ha, 0 to 100 scale, 0 no effect, 100 complete control

Below: 5 compounds and their reported Plant response rating, Pigweed.
>  <compound>
FC(F)(F)c1cnn(-c2c(Oc3ncc(Cl)cn3)cccc2-c2ncon2)c1 [Compound 279]

>  <Plant response rating, Pigweed>
80

$$$$
>  <compound>
FCc1cccc(Oc2ncc(Br)cn2)c1-n1cc(Cl)cn1 [Compound 251]

>  <Plant response rating, Pigweed>
70

$$$$
>  <compound>
Clc1cnc(Oc2cccc(-c3ncco3)c2-n2cc(Br)cn2)nc1 [Compound 287]

>  <Plant response rating, Pigweed>
30

$$$$
>  <compound>
NC(=S)c1cccc(Oc2ncc(Cl)cn2)c1-n1cc(Cl)cn1 [Compound 292]

>  <Plant response rating, Pigweed>
100

$$$$
>  <compound>
N#Cc1cn(-c2c(C#N)cccc2Oc2ncc(Cl)cn2)nn1 [Compound 273]

>  <Plant response rating, Pigweed>
100

$$$$

Now take the following compound into account.
stdin: What value of measured Plant response rating, Pigweed is listed for Cc1cn(-c2c(C#N)cccc2Oc2ncc(Cl)cn2)cn1 [Compound 260] ?
stdout: 60

###

List of Plant response rating, Crabgrass, Large values.
Test system: large (Lg) crabgrass
Experiment: Test A postemergence
Type: in vivo, Digitaria sanguinalis
Details: 500 g ai/ha, 0 to 100 scale, 0 no effect, 100 complete control

stdin: What value of measured Plant response rating, Crabgrass, Large is listed for Clc1ccc(-n2cccn2)c(Oc2ncc(Br)cn2)c1 [Compound 50] ?
stdout: 10

stdin: What value of measured Plant response rating, Crabgrass, Large is listed for Cc1cnc(Oc2ccccc2-n2cc(Br)cn2)nc1 [Compound 9] ?
stdout: 80

stdin: What value of measured Plant response rating, Crabgrass, Large is listed for N#Cc1cccc(Oc2ncc(Br)cn2)c1-n1cc(Br)cn1 [Compound 57] ?
stdout: 100

stdin: What value of measured Plant response rating, Crabgrass, Large is listed for N#Cc1cnn(-c2ccccc2Oc2ncc(Cl)cn2)c1 [Compound 33] ?
stdout: 80

stdin: What value of measured Plant response rating, Crabgrass, Large is listed for C=C(C)c1cnn(-c2ccccc2Oc2ncc(Cl)cn2)c1 [Compound 32] ?
stdout: 50

###

List of Nutsedge, Yellow plant response rating values.
System: yellow nutsedge
Assay: Test C postemergence
Assay type: in vivo, Cyperus esculentus
Details: 31 g ai/ha, postemergence; visual rating, scale 0 to 100 (0 no effect, 100 complete control), 13 to 15 days
Output: the number by itself.

Below: 2 compounds and their reported Nutsedge, Yellow plant response rating.
>  <chemical.smiles>
FC(F)(F)c1cnn(-c2c(Br)cccc2Oc2ncc(Cl)cn2)c1

>  <Nutsedge, Yellow plant response rating>
0

$$$$
>  <chemical.smiles>
FC(F)c1cnn(-c2c(Br)cccc2Oc2ncc(Cl)cn2)c1

>  <Nutsedge, Yellow plant response rating>
5

$$$$

Now take the following compound into account.
stdin: What value of measured Nutsedge, Yellow plant response rating is listed for "N#Cc1cccc(Oc2ncc(Cl)cn2)c1-n1cc(C(F)F)cn1" ?
stdout: 5

###

Tested on: corn
Assay: Test C preemergence
Format: in vivo, Zea mays
Conditions: 125 g ai/ha, preemergence; scale 0 (no effect) to 100 (complete control)
measured.parameter: Corn plant response rating
Output: the number by itself.

Below: 3 molecules and their reported Corn plant response rating.
>  <chemical.smiles>
Fc1cnc(Oc2cccc(C(F)F)c2-n2cc(C(F)(F)F)cn2)nc1

>  <Corn plant response rating>
45

$$$$
>  <chemical.smiles>
FC(F)c1cccc(Oc2ncc(Cl)cn2)c1-n1cc(C(F)(F)F)cn1

>  <Corn plant response rating>
40

$$$$
>  <chemical.smiles>
Fc1cnc(Oc2cccc(C(F)F)c2-n2cc(Cl)cn2)nc1

>  <Corn plant response rating>
55

$$$$

stdin: What value of measured Corn plant response rating is listed for "Cc1cnc(Oc2cccc(C#N)c2-n2cc(C(F)(F)F)cn2)nc1" ?
stdout: 65

Data origin, for the record: patent US9695155B2
